System: Clostridium botulinum
Assay: Zinc chelating activity mediated inhibition of Clostridium botulinum BoNT/A1 LC (1 to 425 residues) activity using SNAPtide as substrate at 50 uM incubated with enzyme for 30 mins followed by substrate addition and measured for 20 mins by FRET assay relative to control
Details: time 50.0 min
Measured inhibition values are reported for all entries that follow.
Please state the figure in %; there is no need to write the unit.

# count of solved cases: 2
COc1cccc(Cn2ccc(=S)c(O)c2C)c1 65
Cc1c(O)c(=S)ccn1-c1cc(C(F)(F)F)cc(C(F)(F)F)c1 0

Any idea what its inhibition is? The compound is Cc1c(O)c(=S)ccn1Cc1ccccc1 55

Fill in the blank: the reported inhibition of COc1ccccc1Cn1ccc(=S)c(O)c1C is ____. 71

# get_value(readout='inhibition', item= COc1ccc(-n2ccc(=S)c(O)c2C)cc1OC ) 12

Would you mind telling me what inhibition value was observed for Cc1c(O)c(=S)ccn1CCc1ccccc1 ? 48

Fill in the blank: the reported inhibition of Cc1c(O)c(=S)ccn1-c1ccc(N)cc1 is ____. 16

---

Overview of reported inhibition across a group of compounds:
Test system: Clostridium botulinum
Test: Zinc chelating activity mediated inhibition of Clostridium botulinum BoNT/A1 LC (1 to 425 residues) activity using SNAPtide as substrate at 50 uM incubated with enzyme for 30 mins followed by substrate addition and measured for 20 mins by FRET assay relative to control
Conditions: time 50.0 min
Numbers only here, please. The scale is %.

Examples from the recorded data:
Cc1ccc(CCn2ccc(=S)c(O)c2C)cc1 81
COc1ccc(CCn2ccc(=S)c(O)c2C)cc1 57

GET /values?readout=inhibition&item= Cc1c(O)c(=S)ccn1-c1ccc(F)c(C(F)(F)F)c1 0

Can you share its inhibition? I mean this compound: Cc1c(O)c(=S)ccn1-c1ccc(F)cc1 37

Bench note: what inhibition did Cc1c(O)c(=S)ccn1-c1ccc(Nc2ccccc2)cc1 show? 14

If you can, please state the reported inhibition value of CCOc1ccc(-n2ccc(=S)c(O)c2C)cc1 . 80

What value of inhibition has been reported for the following compound? Cc1c(O)c(=S)ccn1Cc1ccc(-c2ccc3ccccc3c2)cc1 60

Suppose we examine the compound Cc1c(O)c(=S)ccn1Cc1ccc(F)cc1 ; what inhibition value has been reported? 64

---

Tested on: Clostridium botulinum
Test: Zinc chelating activity mediated inhibition of Clostridium botulinum BoNT/A1 LC (1 to 425 residues) activity using SNAPtide as substrate at 50 uM incubated with enzyme for 30 mins followed by substrate addition and measured for 20 mins by FRET assay relative to control
Settings: time 50.0 min
Each item that follows carries a reported inhibition.
Just the number please, in %, no unit attached.

Cc1c(O)c(=S)ccn1Cc1cccnc1 52
COc1cccc(CCn2ccc(=S)c(O)c2C)c1 62

Now look at this one.
What value of inhibition has been recorded for this entry: Cc1c(O)c(=S)ccn1-c1ccc(N2CCOCC2)cc1 0
